- ASSAY_SYSTEM: GABAB receptor (Homo sapiens, UniProt Q9UBS5)
- Sequence (Q9UBS5 20-961): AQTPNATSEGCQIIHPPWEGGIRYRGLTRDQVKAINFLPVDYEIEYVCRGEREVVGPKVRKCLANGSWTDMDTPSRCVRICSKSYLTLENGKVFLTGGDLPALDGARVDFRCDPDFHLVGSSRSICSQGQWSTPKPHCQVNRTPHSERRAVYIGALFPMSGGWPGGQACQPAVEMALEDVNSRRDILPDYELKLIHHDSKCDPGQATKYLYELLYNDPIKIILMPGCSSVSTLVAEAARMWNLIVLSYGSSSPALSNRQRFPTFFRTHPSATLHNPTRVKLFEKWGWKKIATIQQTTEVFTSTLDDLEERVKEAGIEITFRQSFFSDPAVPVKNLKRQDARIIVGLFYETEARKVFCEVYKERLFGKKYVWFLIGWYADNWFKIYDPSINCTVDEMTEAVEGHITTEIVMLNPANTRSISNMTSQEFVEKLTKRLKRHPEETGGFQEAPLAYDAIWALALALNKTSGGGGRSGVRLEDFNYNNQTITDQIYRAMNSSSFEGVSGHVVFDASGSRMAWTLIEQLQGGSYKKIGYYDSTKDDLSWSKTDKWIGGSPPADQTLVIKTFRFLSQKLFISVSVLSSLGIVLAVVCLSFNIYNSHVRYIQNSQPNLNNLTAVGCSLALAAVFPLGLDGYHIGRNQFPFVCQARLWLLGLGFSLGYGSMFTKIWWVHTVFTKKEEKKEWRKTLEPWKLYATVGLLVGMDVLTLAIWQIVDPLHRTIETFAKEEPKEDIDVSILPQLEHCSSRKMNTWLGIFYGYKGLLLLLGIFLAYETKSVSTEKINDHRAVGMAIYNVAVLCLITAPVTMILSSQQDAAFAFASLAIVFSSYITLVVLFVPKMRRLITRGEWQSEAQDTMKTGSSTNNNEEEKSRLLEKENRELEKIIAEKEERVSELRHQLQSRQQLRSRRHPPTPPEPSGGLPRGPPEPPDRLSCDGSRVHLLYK
- Sequence (O75899 42-941 partner): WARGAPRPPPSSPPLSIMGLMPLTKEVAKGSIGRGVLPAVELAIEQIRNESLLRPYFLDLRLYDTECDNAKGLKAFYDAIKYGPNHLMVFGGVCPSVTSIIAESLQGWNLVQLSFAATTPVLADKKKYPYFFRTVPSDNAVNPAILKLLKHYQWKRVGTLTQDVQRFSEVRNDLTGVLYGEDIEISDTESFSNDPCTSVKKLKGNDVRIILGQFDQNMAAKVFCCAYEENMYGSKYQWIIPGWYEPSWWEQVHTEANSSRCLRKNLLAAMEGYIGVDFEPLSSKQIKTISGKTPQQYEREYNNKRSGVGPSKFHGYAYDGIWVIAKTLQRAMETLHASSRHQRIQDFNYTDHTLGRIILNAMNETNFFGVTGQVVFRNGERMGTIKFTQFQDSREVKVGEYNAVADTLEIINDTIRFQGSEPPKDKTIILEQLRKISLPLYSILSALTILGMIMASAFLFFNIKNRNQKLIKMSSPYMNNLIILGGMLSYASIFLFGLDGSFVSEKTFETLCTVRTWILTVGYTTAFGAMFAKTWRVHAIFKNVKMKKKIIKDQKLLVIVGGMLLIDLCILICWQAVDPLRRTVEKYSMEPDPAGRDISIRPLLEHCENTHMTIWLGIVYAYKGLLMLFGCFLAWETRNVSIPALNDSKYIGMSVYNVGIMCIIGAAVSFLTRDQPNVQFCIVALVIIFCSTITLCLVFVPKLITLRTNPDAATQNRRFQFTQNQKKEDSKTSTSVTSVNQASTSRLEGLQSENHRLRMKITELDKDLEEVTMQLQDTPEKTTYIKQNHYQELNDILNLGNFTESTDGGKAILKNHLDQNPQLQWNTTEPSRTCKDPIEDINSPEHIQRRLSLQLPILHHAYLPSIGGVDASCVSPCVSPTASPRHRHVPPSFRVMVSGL
- PROCEDURE_SUMMARY: Two-electrode voltage clamp at GABAB receptors (subtype not stated) expressed in Xenopus oocytes
- CONDITION_DESCRIPTION: read-out: EC50 as GABAB receptor agonist
Listing of entries alongside the reported EC50.
Express your answer in µM, writing the number without its unit.

>  <SUBSTANCE>
(±)-cis-(3-Aminocyclopentanyl)methylphosphinic acid [(±)-cis-3-ACPMPA]

>  <RECORDED_MEASUREMENT>
50

$$$$

In the following, a different substance is considered.
Q: Give recorded EC50. (±)-trans-(3-Aminocyclopentanyl)methylphosphinic acid [(±)-trans-3-ACPMPA]
A: 160
